Reference source for all entries: patent US6630494B2

List of Ki tested on DHP (PN-200 110) binding sites in rats' heart (Rattus norvegicus, UniProt P22002).
Sequence (P22002 whole entry, other chains not shown): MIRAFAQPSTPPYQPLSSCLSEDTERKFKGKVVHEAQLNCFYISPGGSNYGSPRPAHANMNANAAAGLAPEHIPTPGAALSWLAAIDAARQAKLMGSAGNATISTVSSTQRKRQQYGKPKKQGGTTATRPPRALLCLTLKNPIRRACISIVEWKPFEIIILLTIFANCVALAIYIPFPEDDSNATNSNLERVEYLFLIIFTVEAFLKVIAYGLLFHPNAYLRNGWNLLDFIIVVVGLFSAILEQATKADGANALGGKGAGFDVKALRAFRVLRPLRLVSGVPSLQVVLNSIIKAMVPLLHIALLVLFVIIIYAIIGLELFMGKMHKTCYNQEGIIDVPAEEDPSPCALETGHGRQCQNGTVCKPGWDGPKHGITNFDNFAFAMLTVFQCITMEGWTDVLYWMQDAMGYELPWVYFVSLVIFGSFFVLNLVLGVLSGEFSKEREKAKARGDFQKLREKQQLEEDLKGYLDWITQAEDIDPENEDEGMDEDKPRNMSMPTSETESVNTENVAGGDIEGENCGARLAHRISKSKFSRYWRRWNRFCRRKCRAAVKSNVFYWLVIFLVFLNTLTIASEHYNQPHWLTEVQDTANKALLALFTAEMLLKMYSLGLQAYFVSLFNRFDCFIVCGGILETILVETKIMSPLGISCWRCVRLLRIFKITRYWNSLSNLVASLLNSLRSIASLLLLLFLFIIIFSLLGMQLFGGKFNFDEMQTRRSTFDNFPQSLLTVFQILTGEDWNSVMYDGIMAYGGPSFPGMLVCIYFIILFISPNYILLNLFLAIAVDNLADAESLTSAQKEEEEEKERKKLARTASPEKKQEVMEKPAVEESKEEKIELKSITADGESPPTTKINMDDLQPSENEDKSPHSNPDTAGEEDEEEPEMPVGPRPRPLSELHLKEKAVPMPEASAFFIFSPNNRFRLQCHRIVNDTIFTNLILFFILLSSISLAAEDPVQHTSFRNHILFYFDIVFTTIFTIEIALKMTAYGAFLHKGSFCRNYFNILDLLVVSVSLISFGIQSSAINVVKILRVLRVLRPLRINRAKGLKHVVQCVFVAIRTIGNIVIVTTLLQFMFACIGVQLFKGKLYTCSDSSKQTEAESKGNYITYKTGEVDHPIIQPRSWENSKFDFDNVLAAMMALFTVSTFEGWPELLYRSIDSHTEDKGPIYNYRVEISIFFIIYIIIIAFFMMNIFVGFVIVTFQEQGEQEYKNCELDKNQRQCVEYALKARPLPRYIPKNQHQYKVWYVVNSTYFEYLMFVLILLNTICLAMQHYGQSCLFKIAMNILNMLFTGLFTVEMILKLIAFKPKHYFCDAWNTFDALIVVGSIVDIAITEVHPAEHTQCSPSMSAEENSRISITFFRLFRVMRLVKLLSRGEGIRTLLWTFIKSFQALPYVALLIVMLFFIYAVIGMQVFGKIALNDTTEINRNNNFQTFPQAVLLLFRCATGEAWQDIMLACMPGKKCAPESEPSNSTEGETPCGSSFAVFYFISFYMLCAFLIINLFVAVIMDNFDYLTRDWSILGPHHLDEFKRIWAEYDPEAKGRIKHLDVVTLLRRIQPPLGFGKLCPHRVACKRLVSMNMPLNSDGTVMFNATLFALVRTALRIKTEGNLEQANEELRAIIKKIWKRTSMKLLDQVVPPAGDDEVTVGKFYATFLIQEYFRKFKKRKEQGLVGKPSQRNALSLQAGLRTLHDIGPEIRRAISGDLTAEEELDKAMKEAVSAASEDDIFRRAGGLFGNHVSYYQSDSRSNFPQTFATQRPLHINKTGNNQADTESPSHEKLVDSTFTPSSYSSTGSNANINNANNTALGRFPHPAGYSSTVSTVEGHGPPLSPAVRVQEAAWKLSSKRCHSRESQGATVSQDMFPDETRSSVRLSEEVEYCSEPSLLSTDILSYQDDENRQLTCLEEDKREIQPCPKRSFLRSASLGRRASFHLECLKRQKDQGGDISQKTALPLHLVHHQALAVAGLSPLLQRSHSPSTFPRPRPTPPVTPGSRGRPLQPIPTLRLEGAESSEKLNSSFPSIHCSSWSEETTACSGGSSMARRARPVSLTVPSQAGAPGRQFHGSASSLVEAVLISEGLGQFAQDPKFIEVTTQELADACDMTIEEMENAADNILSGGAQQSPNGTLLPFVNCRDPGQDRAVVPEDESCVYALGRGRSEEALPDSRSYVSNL
Sequence (P54290 25-944 partner limits assumed, other chains not shown): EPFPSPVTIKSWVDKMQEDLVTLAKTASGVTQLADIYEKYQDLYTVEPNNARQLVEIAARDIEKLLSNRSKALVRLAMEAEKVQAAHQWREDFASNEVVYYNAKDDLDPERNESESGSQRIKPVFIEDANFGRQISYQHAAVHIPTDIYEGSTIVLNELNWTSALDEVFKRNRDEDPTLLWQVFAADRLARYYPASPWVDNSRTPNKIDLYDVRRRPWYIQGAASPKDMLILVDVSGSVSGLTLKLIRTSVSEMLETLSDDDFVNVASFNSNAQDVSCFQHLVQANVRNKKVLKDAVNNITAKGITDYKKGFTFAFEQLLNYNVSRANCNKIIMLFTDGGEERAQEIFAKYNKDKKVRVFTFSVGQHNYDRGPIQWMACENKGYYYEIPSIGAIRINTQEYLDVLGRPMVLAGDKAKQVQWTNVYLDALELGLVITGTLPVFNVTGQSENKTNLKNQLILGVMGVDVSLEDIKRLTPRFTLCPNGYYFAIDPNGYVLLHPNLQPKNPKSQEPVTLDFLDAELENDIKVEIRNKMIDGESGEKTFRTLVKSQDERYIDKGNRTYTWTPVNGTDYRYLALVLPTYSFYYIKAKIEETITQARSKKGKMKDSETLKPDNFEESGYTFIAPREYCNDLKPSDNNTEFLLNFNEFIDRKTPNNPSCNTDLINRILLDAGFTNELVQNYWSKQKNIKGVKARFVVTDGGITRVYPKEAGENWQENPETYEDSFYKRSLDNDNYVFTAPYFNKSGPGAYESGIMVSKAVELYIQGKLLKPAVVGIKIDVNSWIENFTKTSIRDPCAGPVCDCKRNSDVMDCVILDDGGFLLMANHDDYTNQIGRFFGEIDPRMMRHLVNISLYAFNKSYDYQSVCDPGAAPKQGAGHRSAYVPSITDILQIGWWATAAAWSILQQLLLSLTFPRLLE
Sequence (P54290 945-1091 partner limits assumed, other chains not shown): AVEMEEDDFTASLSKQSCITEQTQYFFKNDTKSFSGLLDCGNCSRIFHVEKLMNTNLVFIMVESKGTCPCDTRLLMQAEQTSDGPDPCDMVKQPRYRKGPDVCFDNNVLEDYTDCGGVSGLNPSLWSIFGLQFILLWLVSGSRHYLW
Numbers only here, please. The scale is nM.

Which Ki is listed for COCCOC(=O)C1=C(C)NC(C)=C(C(=O)OC(C)C)C1c1ccc(F)c(F)c1 (racemic) ?
28

Which Ki value is on record for COCCOC(=O)C1=C(C)NC(C)=C(C(=O)OC(C)C)C1c1cccc([N+](=O)[O-])c1 (stereo not shown) [Nimodipine, nimodipine, reference compound] ?
4.6

Please give the measured Ki for this compound: COCCOC(=O)C1=C(C)NC(C)=C(C(=O)OC(C)(C)C)C1c1cccc(C#N)c1 (racemic)
7.9

Param item = COC(=O)C1=C(C)NC(C)=C(C(=O)OCCN(C)Cc2ccccc2)C1c1cccc([N+](=O)[O-])c1 (stereo not shown) [Nicardipine, nicardipine, reference compound] ; retrieve measured Ki.
14

* * *

Task for the reader: assign each of the following molecules its reported Selectivity.
System: DHP (PN-200 110) binding sites in rats' brain
Assay: Binding affinity to DHP (PN 200-110) binding sites in rats' brain
Design: species or system rat
Details: comparison of binding affinities rats' brain vs rats' heart (Ki heart / Ki brain)

May I ask what Selectivity has been recorded for COCCOC(=O)C1=C(C)NC(C)=C(C(=O)OC(C)(C)C)C1c1cccc(C#N)c1 (racemic) ?
2.2

Request the reported Selectivity associated with COCCOC(=O)C1=C(C)NC(C)=C(C(=O)OC(C)C)C1c1ccc(F)c(F)c1 (racemic)
3.4

Returns the measured Selectivity for the input molecule. Input: COCCOC(=O)C1=C(C)NC(C)=C(C(=O)OC(C)C)C1c1cc(Cl)ccc1Cl (racemic)
10

Reported Selectivity, molecule COCCOC(=O)C1=C(C)NC(C)=C(C(=O)OC2CCCC2)C1c1cccc(C#N)c1Cl (racemic) : ____
4.7

Return reported Selectivity; argument: COCCOC(=O)C1=C(C)NC(C)=C(C(=O)OC(C)C)C1c1cccc(Cl)c1C#N (racemic)
5.7

* * *

Provide the recorded melting point for the entries that follow.

Fill in: melting point of COCCOC(=O)C1=C(C)NC(C)=C(C(=O)OC(C)C)C1c1cccc(F)c1F (racemic) [Example 9] is ___
135 to 136 °C

Request the reported melting point associated with COCCOC(=O)C1=C(C)NC(C)=C(C(=O)OC(C)C)C1c1c(F)cccc1Cl (racemic) [Example 3]
57 to 59 °C

Which melting point is listed for COCCOC(=O)C1=C(C)NC(C)=C(C(=O)OC2CCCC2)C1c1cccc(C#N)c1Cl (racemic) [Example 30] ?
119 to 120 °C

Any idea what melting point was measured for COCCOC(=O)C1=C(C)NC(C)=C(C(=O)OC)C1c1cccc(C(F)(F)F)c1F (racemic) [Example 39] ?
128 °C

# get_value(readout='melting point', item= COCCOC(=O)C1=C(C)NC(C)=C(C(=O)OC(C)C)C1c1cc(Cl)ccc1Cl (racemic) [Example 12] )
79 to 89 °C

Which melting point is reported for this compound? COCCOC(=O)C1=C(C)NC(C)=C(C(=O)OC2CCCC2)C1c1cccc(Cl)c1C#N (racemic) [Example 46]
128 to 130 °C

Which melting point is listed for COCCOC(=O)C1=C(C)NC(C)=C(C(=O)OC(C)C)C1c1cccc(C(F)(F)F)c1F (racemic) [Example 27] ?
140 to 142 °C

Entry COCCOC(=O)C1=C(C)NC(C)=C(C(=O)OC(C)C)C1c1ccc(F)c(F)c1 (racemic) [Example 18] : reported melting point = ?
78 °C

State the recorded melting point for this entry: COCCOC(=O)C1=C(C)NC(C)=C(C(=O)OC(C)C)C1c1c(F)cccc1F (racemic) [Example 6]
119 to 120 °C

GET /values?readout=melting point&item= COCCOC(=O)C1=C(C)NC(C)=C(C(=O)OC2CCCC2)C1c1cccc(C(F)(F)F)c1F (racemic) [Example 36]
105 °C

Fill in the blank: the reported melting point of COCCOC(=O)C1=C(C)NC(C)=C(C(=O)OC(C)(C)C)C1c1cccc(C#N)c1 (racemic) [Example 33] is ____.
108 to 109 °C
